molecular target: Plk1-Map interaction (Homo sapiens, UniProt P53350); assay: BRET Plk1-Map, stable HEK293T Plk1-Luc/GFP-Map cell line; assay type: cell-based; set-up: cDNAs for the human full length Plk1; expressed in transfected cells; details: 10-25 μM, 2 h
Sequence (P53350 whole entry): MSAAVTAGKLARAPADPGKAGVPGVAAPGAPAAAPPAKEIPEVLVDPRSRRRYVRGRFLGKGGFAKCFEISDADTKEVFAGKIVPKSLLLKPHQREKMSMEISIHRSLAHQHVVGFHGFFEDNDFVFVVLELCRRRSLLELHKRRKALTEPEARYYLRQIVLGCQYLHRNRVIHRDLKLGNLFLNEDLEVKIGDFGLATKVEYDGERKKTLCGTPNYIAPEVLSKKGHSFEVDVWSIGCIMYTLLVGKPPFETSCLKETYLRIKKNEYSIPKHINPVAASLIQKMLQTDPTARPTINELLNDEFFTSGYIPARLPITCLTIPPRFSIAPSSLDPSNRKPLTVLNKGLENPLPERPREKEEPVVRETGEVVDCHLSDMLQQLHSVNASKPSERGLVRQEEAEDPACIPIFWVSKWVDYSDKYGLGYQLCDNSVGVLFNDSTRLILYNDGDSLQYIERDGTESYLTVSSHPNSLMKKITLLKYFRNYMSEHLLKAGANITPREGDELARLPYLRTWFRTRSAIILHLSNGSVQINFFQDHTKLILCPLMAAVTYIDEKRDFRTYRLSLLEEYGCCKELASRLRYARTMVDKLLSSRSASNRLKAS
Parameter Primary screen Plk1-Map (stable) % Quench RLuc: see the listing below.
Your answer is read as %, so omit the unit and give the number.

smiles_data	meas_value
COc1ccc(-c2oc3ccccc3c(=O)c2OS(=O)(=O)c2cc(Cl)ccc2Cl)cc1	86.60
Cc1cc(C(F)(F)F)cc(S(=O)(=O)CCOC(=O)c2cccc(Cl)c2)n1	86.24
N#Cc1cccnc1S(=O)(=O)CCOC(=O)c1cccc(Cl)c1	84.93
COc1ccc(-c2oc3ccccc3c(=O)c2OS(=O)(=O)c2cc(OC)ccc2OC)cc1	86.93

Now take the following molecule into account.
Item COc1ccc(-c2oc3ccccc3c(=O)c2OS(=O)(=O)c2ccccc2)cc1 with Plk1-Map interaction (Homo sapiens, UniProt P53350) - Primary screen Plk1-Map (stable) % Quench RLuc?
82.37
